Biological target: T1, huCD300LB-DAP12 fusion constitutively expressed on 293 Freestyle (Freestyle HEK) cells (human)
T1 construct: also called Human CD300LB-DAP12 chimera
T1 sequence (chain, as listed by the source limits assumed): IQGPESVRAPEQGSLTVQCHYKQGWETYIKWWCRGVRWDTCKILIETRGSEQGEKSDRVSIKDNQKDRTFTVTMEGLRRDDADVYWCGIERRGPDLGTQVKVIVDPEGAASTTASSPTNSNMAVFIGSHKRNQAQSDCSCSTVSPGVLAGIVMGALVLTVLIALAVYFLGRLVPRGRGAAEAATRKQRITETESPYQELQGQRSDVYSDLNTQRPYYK
Test: flow cytometry, stable Freestyle HEK cells
Provide the recorded gMFI for the entries that follow.
One number for each entry, in gMFI.

Example cases with answers are listed next.
Binder | gMFI (gMFI)
anti-CD300LB antibody CD-09 (antibody, V domains shown) VH: QVQLVQSGAEVKKPGASVKVSCKASGYTFTTYAVHWVRQAPGQGLEWMGIINPNSGGTNYAQKFQGRVTMTRDTSTSTVYMELSSLRSEDTAVYYCARDIVPMNNFYNYYYGMDVWGQGTTVTVSS VL: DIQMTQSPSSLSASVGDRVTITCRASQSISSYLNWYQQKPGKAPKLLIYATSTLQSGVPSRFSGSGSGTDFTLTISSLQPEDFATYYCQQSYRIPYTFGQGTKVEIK | 37900
anti-CD300LB antibody CD-01 (antibody, V domains shown) VH: RVQLQQSGAELVRPGASVTLSCKASGFTFTDFEMHWVKKTPVHGLEWIGAIDPESGNTAYNQKFRGKATLTADKSSSTAYMELRYLTSEDSAVYYCTPLISGADYWGQGTTLTVSS VL: DVVMTQSPLSLPVSLGDQASISCRSSQSLVHSDGNTYLYWYLQKPGQSPKLLIYKVSNRFSGVPDRFSGSGSGTDFTFKISRVGAEDLGVYFCSQSTHVPWTFGGGTKLEII | 45

# input Endpoint output: gMFI of anti-CD300LB antibody CD-04 (antibody, V domains shown) VH: QVQLQQSGAELVRPGASVTLSCRASGYTFTDFEMHWVKQTPLHGLEWIGAIAPETGGTAYNQKFKGKAILTADKSSSTAYVELRSLTSEDSAVYFCTRLGGMDYWGQGTSVTVSS VL: DVVMTQTPLSLPVSLGDQASISCRSSQTLVHNNGNTYLYWYLQKPGQSPKLLIYQVSNRFFGVPDRFSGSGSGTDFTLKISRVEAEDLGLYFCSQSTHVPWTFGGGTKLEIK . Value?
# output 190

The values you see were collected from patent US20240254227A1.
